Test system: Plasmodium berghei
method_summary: Screen against P. berghei liver stage (PbLuc), transformed with Luciferase, at 10uM
Assay type: functional, HepG2
details: tested at 10 uM
In all, about 69,000 compounds went through this assay and about 8,600 (12%) showed an effect of 50% or more. Many of the other results were omitted from the sample, so strong results are more common in it than they were.
readout_label: INHIBITION (%)
Give bare numbers, in %.

The examples below pair each entry with its known result.
[
  {
    "molecule": "CCC(C)N(C)S(=O)(=O)c1ccc(CCNC(C)=O)s1 (stereo unspecified)",
    "INHIBITION, %": 13.7
  },
  {
    "molecule": "COCCOCC(=O)Nc1ccc(C)cc1F",
    "INHIBITION, %": -29.2
  },
  {
    "molecule": "O=C(c1ccco1)N1C[C@H]2CN(Cc3cccc(F)c3)C(=O)[C@H]2C1",
    "INHIBITION, %": 1.94
  },
  {
    "molecule": "COCCOCC(=O)Nc1ccc(F)cc1C",
    "INHIBITION, %": 55.4
  }
]

Lab note: each molecule below needs its INHIBITION filled in.
1. COCC(=O)N1C[C@H]2CN(Cc3cccc(F)c3)C(=O)[C@H]2C1
2. COCCOCC(=O)Nc1cc(C)ccc1F

Output:
1. 50.9
2. -18.9

Give INHIBITION for each of the items listed below.
1. N#Cc1cc2c(nc1SCc1cc(O)nc(O)n1)CCCCC2
2. Cc1nn(C)c(Cl)c1C1CCCN1C(=O)c1ccnc(N(C)C)c1 (stereo unspecified)

Output:
1: 66.4; 2: -65.3

For every record below, what is its INHIBITION?
1. Cc1nc(C(=O)N2CCCC2c2cnn(C)c2)ccc1C#N (stereo unspecified)
2. N#Cc1cc2c(nc1SCc1cc(O)nc(O)n1)CCCC2
3. O=C(c1ccc[nH]1)N1C[C@H]2CN(Cc3cccc(F)c3)C(=O)[C@H]2C1

Output:
13.3
32.3
8.53
